System: 556581-035-R-J1-PDC complex spheroid growth
Assay: Anticancer human tumor 556581-035-R-J1-PDC patient-derived ovarian carcinoma cell line growth inhibition [Asc]
Conditions: curve of first compound; second compound 0.1 µM
Each entry below carries its recorded pIC50.
Please express pIC50 as -log10 of the molar concentration.

Cc1nc(N2CCC3(CC2)COC(C)C3N)c(CO)nc1Sc1ccnc(N)c1Cl (stereo unspecified) + CNC(C)C(=O)NC1CN(S(=O)(=O)c2cccc(S(=O)(=O)N3CCC4CCC(C(=O)NC(c5ccccc5)c5ccccc5)N4C(=O)C(NC(=O)C(C)NC)C3)c2)CCC2CCC(C(=O)NC(c3ccccc3)c3ccccc3)N2C1=O; 5.92
CNC(C)C(=O)NC1CN(S(=O)(=O)c2cccc(S(=O)(=O)N3CCC4CCC(C(=O)NC(c5ccccc5)c5ccccc5)N4C(=O)C(NC(=O)C(C)NC)C3)c2)CCC2CCC(C(=O)NC(c3ccccc3)c3ccccc3)N2C1=O (stereo unspecified) + Cc1c(S(C)(=O)=O)c(-c2cc(F)cc(N3CCN(c4ccc(NS(=O)(=O)c5ccc(NC(CCN6CCC(C(=O)OCCCP(=O)(O)O)CC6)CSc6ccccc6)c(S(=O)(=O)C(F)(F)F)c5)cc4)CC3)c2)c(-c2ccc(Cl)cc2)n1C(C)C; 7.06
Cc1nc(N2CCC3(CC2)COC(C)C3N)c(CO)nc1Sc1ccnc(N)c1Cl (stereo unspecified) + Cc1c(S(C)(=O)=O)c(-c2cc(F)cc(N3CCN(c4ccc(NS(=O)(=O)c5ccc(NC(CCN6CCC(C(=O)OCCCP(=O)(O)O)CC6)CSc6ccccc6)c(S(=O)(=O)C(F)(F)F)c5)cc4)CC3)c2)c(-c2ccc(Cl)cc2)n1C(C)C; 6.26

Turning now to a further record.
Note to self: pIC50 recorded for CCN1CCN(Cc2ccc(Nc3ncc(F)c(-c4cc(F)c5nc(C)n(C(C)C)c5c4)n3)nc2)CC1 + CNC(C)C(=O)NC1CN(S(=O)(=O)c2cccc(S(=O)(=O)N3CCC4CCC(C(=O)NC(c5ccccc5)c5ccccc5)N4C(=O)C(NC(=O)C(C)NC)C3)c2)CCC2CCC(C(=O)NC(c3ccccc3)c3ccccc3)N2C1=O was 6.47

====

Test system: 556581-035-R-J1-PDC complex spheroid growth
Assay: Anticancer human tumor 556581-035-R-J1-PDC cell line growth inhibition [Asc];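 note: spheroids exposed to agents for 7 days before viability read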
Settings: second compound 1 µM; first compound 0.1 µM; stronger effect = lower value
Collected viability, T/C values appear next to each entry.
State just the number; it will be interpreted in %.

// worked examples, viability, T/C included
C=CC(=O)N1CCN(c2nc(=O)n(-c3c(C)ccnc3C(C)C)c3nc(-c4c(O)cccc4F)c(F)cc23)C(C)C1 (stereo unspecified) + Cc1c(S(C)(=O)=O)c(-c2cc(F)cc(N3CCN(c4ccc(NS(=O)(=O)c5ccc(NC(CCN6CCC(C(=O)OCCCP(=O)(O)O)CC6)CSc6ccccc6)c(S(=O)(=O)C(F)(F)F)c5)cc4)CC3)c2)c(-c2ccc(Cl)cc2)n1C(C)C; 71.6
COc1c(OCCCN2CCOCC2)ccc2c3n(c(=NC(=O)c4cnc(N)nc4)nc12)CCN3 + CNC(C)C(=O)NC1CN(S(=O)(=O)c2cccc(S(=O)(=O)N3CCC4CCC(C(=O)NC(c5ccccc5)c5ccccc5)N4C(=O)C(NC(=O)C(C)NC)C3)c2)CCC2CCC(C(=O)NC(c3ccccc3)c3ccccc3)N2C1=O; 27.3
C=C(F)C(=O)N1CCN(c2nc(OCC3CCCN3C)nc3c2CCN(c2cccc4cccc(Cl)c24)C3)CC1CC#N (stereo unspecified) + Cc1c(S(C)(=O)=O)c(-c2cc(F)cc(N3CCN(c4ccc(NS(=O)(=O)c5ccc(NC(CCN6CCC(C(=O)OCCCP(=O)(O)O)CC6)CSc6ccccc6)c(S(=O)(=O)C(F)(F)F)c5)cc4)CC3)c2)c(-c2ccc(Cl)cc2)n1C(C)C; 71.8
COc1c(OCCCN2CCOCC2)ccc2c3n(c(=NC(=O)c4cnc(N)nc4)nc12)CCN3 + Cc1c(S(C)(=O)=O)c(-c2cc(F)cc(N3CCN(c4ccc(NS(=O)(=O)c5ccc(NC(CCN6CCC(C(=O)OCCCP(=O)(O)O)CC6)CSc6ccccc6)c(S(=O)(=O)C(F)(F)F)c5)cc4)CC3)c2)c(-c2ccc(Cl)cc2)n1C(C)C; 27.7
C#Cc1c(F)ccc2cc(O)cc(-c3ncc4c(N5CC6CCC(C5)N6)nc(OCC56CCCN5CC(F)C6)nc4c3F)c12 (stereo unspecified) + Cc1c(S(C)(=O)=O)c(-c2cc(F)cc(N3CCN(c4ccc(NS(=O)(=O)c5ccc(NC(CCN6CCC(C(=O)OCCCP(=O)(O)O)CC6)CSc6ccccc6)c(S(=O)(=O)C(F)(F)F)c5)cc4)CC3)c2)c(-c2ccc(Cl)cc2)n1C(C)C; 65.3

GET /values?item= CNC(C)C(=O)NC1CN(S(=O)(=O)c2cccc(S(=O)(=O)N3CCC4CCC(C(=O)NC(c5ccccc5)c5ccccc5)N4C(=O)C(NC(=O)C(C)NC)C3)c2)CCC2CCC(C(=O)NC(c3ccccc3)c3ccccc3)N2C1=O (stereo unspecified) + Cc1c(S(C)(=O)=O)c(-c2cc(F)cc(N3CCN(c4ccc(NS(=O)(=O)c5ccc(NC(CCN6CCC(C(=O)OCCCP(=O)(O)O)CC6)CSc6ccccc6)c(S(=O)(=O)C(F)(F)F)c5)cc4)CC3)c2)c(-c2ccc(Cl)cc2)n1C(C)C &system= 556581-035-R-J1-PDC complex spheroid growth returns viability, T/C: 33.5
